assayedSystem: Arabidopsis thaliana phototropin 2 (AtPhot2) LOV2 domain (residues 387-492) variant AtminiSOG0.2 (miniSOG0.2, miniSOG), 1387M/N390S/S394T/S409G/C426G/F470L, SEQ ID NO: 2 (Arabidopsis thaliana, UniProt P93025, C426G/F470L/N390S/S394T/S409G)
Construct: can be engineered into a small (106-residue) SOG; made in house
assayInfo: Equilibrium dialysis of miniSOG (FMN dissociation constant)
Assay type: binding
runConditions: [apo] * [FMN]/[holo], equilibrium dialysis, dialysis time 72 hrs
outcomeMeasure: Kd (nM)
All answers are understood in nM, so give the number only.

stdin: Can you share its Kd? I mean this compound: Cc1cc2nc3c(=O)[nH]c(=O)nc-3n(C[C@H](O)[C@H](O)[C@H](O)COP(=O)(O)O)c2cc1C [FMN, flavin mononucleotide]
stdout: 0.17

====

assayedSystem: Arabidopsis thaliana phototropin 2 (AtPhot2) LOV2 domain (residues 387-492) variant AtminiSOG0.2 (miniSOG0.2, miniSOG), 1387M/N390S/S394T/S409G/C426G/F470L, SEQ ID NO: 2 (Arabidopsis thaliana, UniProt P93025, C426G/F470L/N390S/S394T/S409G)
Construct: can be engineered into a small (106-residue) SOG; made in house
assayInfo: Equilibrium dialysis of miniSOG (FMN dissociation constant)
Assay type: binding
runConditions: [apo] * [FMN]/[holo], equilibrium dialysis, dialysis time 24 hrs
outcomeMeasure: pKd
# pKd is unitless: minus log10 of the molar concentration; print number only

stdin: Can you share its pKd? I mean this compound: Cc1cc2nc3c(=O)[nH]c(=O)nc-3n(C[C@H](O)[C@H](O)[C@H](O)COP(=O)(O)O)c2cc1C [FMN, flavin mononucleotide]
stdout: 9.91

====

assayedSystem: Arabidopsis thaliana phototropin 2 (AtPhot2) LOV2 domain (residues 387-492) variant AtminiSOG0.2 (miniSOG0.2, miniSOG), 1387M/N390S/S394T/S409G/C426G/F470L, SEQ ID NO: 2 (Arabidopsis thaliana, UniProt P93025, C426G/F470L/N390S/S394T/S409G)
Construct: can be engineered into a small (106-residue) SOG; made in house
assayInfo: Equilibrium dialysis of miniSOG (FMN dissociation constant)
Format: binding
runConditions: dissociation constant (binds endogenous FMN very tightly), summary statement
outcomeMeasure: Kd

stdin: Can you share its Kd? I mean this compound: Cc1cc2nc3c(=O)[nH]c(=O)nc-3n(C[C@H](O)[C@H](O)[C@H](O)COP(=O)(O)O)c2cc1C [FMN, flavin mononucleotide]
stdout: ~0.1 nM

====

assayedSystem: Arabidopsis thaliana phototropin 2 (AtPhot2) LOV2 domain (residues 387-492) variant AtminiSOG0.2 (miniSOG0.2, miniSOG), 1387M/N390S/S394T/S409G/C426G/F470L, SEQ ID NO: 2 (Arabidopsis thaliana, UniProt P93025, C426G/F470L/N390S/S394T/S409G)
Construct: can be engineered into a small (106-residue) SOG; made in house
assayInfo: Equilibrium dialysis of miniSOG (FMN dissociation constant)
Type: binding
runConditions: dissociation constant, equilibrium dialysis; FMN cofactor
outcomeMeasure: pKd
# pKd is unitless: minus log10 of the molar concentration; print number only

stdin: Can you share its pKd? I mean this molecule: Cc1cc2nc3c(=O)[nH]c(=O)nc-3n(C[C@H](O)[C@H](O)[C@H](O)COP(=O)(O)O)c2cc1C [FMN, flavin mononucleotide]
stdout: 9.77

====

assayedSystem: Arabidopsis thaliana phototropin 2 (AtPhot2) LOV2 domain (residues 387-492) variant AtminiSOG0.2 (miniSOG0.2, miniSOG), 1387M/N390S/S394T/S409G/C426G/F470L, SEQ ID NO: 2 (Arabidopsis thaliana, UniProt P93025, C426G/F470L/N390S/S394T/S409G)
Construct: can be engineered into a small (106-residue) SOG; made in house
assayInfo: Equilibrium dialysis of miniSOG (FMN dissociation constant)
Type: binding
runConditions: [apo] * [FMN]/[holo], equilibrium dialysis, dialysis time 48 hrs
Description: Mass spectrometry confirmed that the flavin cofactor is FMN. Equilibrium dialysis reported a dissociation constant of 170±8 pM (Table 2), similar to values for some flavoproteins (e.g., 260±60 pM for a flavodoxin [23]) and consistent with the crystal structures of LOV domains, which show FMN deeply buried inside the protein core.
outcomeMeasure: pKd
# pKd is unitless: minus log10 of the molar concentration; print number only

stdin: Can you share its pKd? I mean this compound: Cc1cc2nc3c(=O)[nH]c(=O)nc-3n(C[C@H](O)[C@H](O)[C@H](O)COP(=O)(O)O)c2cc1C [FMN, flavin mononucleotide]
stdout: 9.76
